# Target: Recombinant human GR (Homo sapiens, UniProt P04150)
# Construct: purchased Invitrogen P2816
# Assay info: GR competitor assay by fluorescence polarization (binding activity to glucocorticoid receptor)
# Condition set: 20 μM test compound solution, 10 μL per well plus 5 μL 4×GS1 and 5 μL 4×GR; 2 to 4 hours at room temperature; ratio of 100% or more is indicated by 100%
Each item that follows carries a reported inhibition at 10 µM.
Answer shape: numeric part, then the unit.

COc1cc(OS(=O)(=O)C2CCCC2)ccc1-c1ccc2c(c1COc1cc(F)ccc1C)N(C)C(=O)C(C)(C)N2 95%
COc1ccc([N+](=O)[O-])cc1OCc1c(-c2ccc(OS(=O)(=O)C(C)C)cc2OC)ccc2c1N(C)C(=O)C(C)(C)N2 100%

Now for a further compound.
Sample COc1cc(OS(=O)(=O)C2CCCC2)ccc1-c1ccc2c(c1COC(=O)c1ccc(C)s1)N(C)C(=O)C(C)(C)N2 — what was its inhibition at 10 µM? 94%

---

# Target: Recombinant human GR (Homo sapiens, UniProt P04150)
# Construct: purchased Invitrogen P2816
# Assay info: GR competitor assay by fluorescence polarization (binding activity to glucocorticoid receptor)
# Condition set: 20 μM test compound solution, 10 μL per well plus 5 μL 4×GS1 and 5 μL 4×GR; 2 to 4 hours at room temperature; ratio of 100% or more is indicated by 100%
Metric: inhibition at 10 µM (%)
# number only, unit % dropped from output

COc1cc(OS(=O)(=O)c2ccccc2Cl)ccc1-c1ccc2c(c1COc1cc(F)ccc1C)N(C)C(=O)C(C)(C)N2 85
COc1cc(OS(=O)(=O)CCC(F)(F)F)ccc1-c1ccc2c(c1COC(=O)c1ccc(C)s1)N(C)C(=O)C(C)(C)N2 95
COc1ccccc1NCc1c(-c2ccc(OS(=O)(=O)CCC(F)(F)F)cc2OC)ccc2c1N(C)C(=O)C(C)(C)N2 91
COc1cc(OS(=O)(=O)c2ccco2)ccc1-c1ccc2c(c1COc1cc(F)ccc1C)N(C)C(=O)C(C)(C)N2 95
COc1cc(OS(=O)(=O)CCCCl)ccc1-c1ccc2c(c1COc1cc(F)ccc1C)N(C)C(=O)C(C)(C)N2 99
COc1cc(OS(=O)(=O)CC(C)C)ccc1-c1ccc2c(c1COc1cc(F)ccc1C)N(C)C(=O)C(C)(C)N2 92
COc1cc(OS(=O)(=O)C2CC2)ccc1-c1ccc2c(c1COc1cc([N+](=O)[O-])ccc1C)N(C)C(=O)C(C)(C)N2 94
COc1cc(OS(=O)(=O)CCCN2CCCCC2)ccc1-c1ccc2c(c1COc1cc(F)ccc1C)N(C)C(=O)C(C)(C)N2 71
COc1cc(OS(=O)(=O)Cc2cccc(Cl)c2)ccc1-c1ccc2c(c1COc1cc(F)ccc1C)N(C)C(=O)C(C)(C)N2 88
COC(=O)CCS(=O)(=O)Oc1ccc(-c2ccc3c(c2COc2cc(F)ccc2C)N(C)C(=O)C(C)(C)N3)c(OC)c1 100

Sample COc1cc(OS(=O)(=O)CCCN2CCOCC2)ccc1-c1ccc2c(c1COc1cc(F)ccc1C)N(C)C(=O)C(C)(C)N2 — what was its inhibition at 10 µM? 100

# iterate: COc1cc(NS(C)(=O)=O)ccc1-c1ccc2c(c1COc1cc(F)ccc1C)N(C)C(=O)C(C)(C)N2 92

# iterate: COc1ccc([N+](=O)[O-])cc1OCc1c(-c2ccc(OS(=O)(=O)C3CCCC3)cc2OC)ccc2c1N(C)C(=O)C(C)(C)N2 100

---

# Target: Recombinant human GR (Homo sapiens, UniProt P04150)
# Construct: purchased Invitrogen P2816
# Sequence (P04150 1-777): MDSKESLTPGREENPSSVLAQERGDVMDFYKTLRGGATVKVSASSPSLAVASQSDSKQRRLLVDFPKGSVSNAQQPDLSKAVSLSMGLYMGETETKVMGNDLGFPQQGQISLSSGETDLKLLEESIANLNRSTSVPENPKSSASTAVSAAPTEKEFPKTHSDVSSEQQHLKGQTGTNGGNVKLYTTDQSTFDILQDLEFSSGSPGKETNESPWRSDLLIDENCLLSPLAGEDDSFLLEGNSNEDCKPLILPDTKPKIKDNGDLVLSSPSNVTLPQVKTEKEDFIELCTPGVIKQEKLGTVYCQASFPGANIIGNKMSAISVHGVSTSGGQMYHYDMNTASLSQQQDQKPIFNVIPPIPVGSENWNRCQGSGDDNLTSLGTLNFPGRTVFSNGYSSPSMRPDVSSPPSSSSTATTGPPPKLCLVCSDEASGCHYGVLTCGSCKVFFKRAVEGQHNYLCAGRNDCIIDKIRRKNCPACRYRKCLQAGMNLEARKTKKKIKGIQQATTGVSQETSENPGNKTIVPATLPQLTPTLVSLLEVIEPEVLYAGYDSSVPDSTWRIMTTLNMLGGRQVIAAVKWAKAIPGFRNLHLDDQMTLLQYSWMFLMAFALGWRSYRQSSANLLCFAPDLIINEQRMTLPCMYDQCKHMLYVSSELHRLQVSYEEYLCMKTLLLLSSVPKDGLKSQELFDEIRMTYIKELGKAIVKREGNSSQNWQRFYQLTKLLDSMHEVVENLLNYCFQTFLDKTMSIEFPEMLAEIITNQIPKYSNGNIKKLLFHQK
# Assay info: GR competitor assay by fluorescence polarization (binding activity to glucocorticoid receptor)
# Condition set: 20 μM test compound solution, 10 μL per well plus 5 μL 4×GS1 and 5 μL 4×GR; 2 to 4 hours at room temperature; ratio of 100% or more is indicated by 100%
Metric: inhibition at 10 µM (%)
# number only, unit % dropped from output

Record excerpt, results attached:
COc1ccc([N+](=O)[O-])cc1OCc1c(-c2ccc(OS(=O)(=O)CCC(F)(F)F)cc2OC)ccc2c1N(C)C(=O)C(C)(C)N2 100
COc1cc(OS(=O)(=O)Cc2ccc(Cl)cc2)ccc1-c1ccc2c(c1COc1cc(F)ccc1C)N(C)C(=O)C(C)(C)N2 87
COc1cc(OS(=O)(=O)c2cccc(Cl)c2)ccc1-c1ccc2c(c1COc1cc(F)ccc1C)N(C)C(=O)C(C)(C)N2 68
CCCS(=O)(=O)Oc1ccc(-c2ccc3c(c2CNc2ccccc2OC)N(C)C(=O)C(C)(C)N3)c(OC)c1 98
CCS(=O)(=O)Oc1ccc(-c2ccc3c(c2COc2cc(F)ccc2C)N(C)C(=O)C(C)(C)N3)c(OC)c1 100
COc1cccc(S(=O)(=O)Oc2ccc(-c3ccc4c(c3COc3cc(F)ccc3C)N(C)C(=O)C(C)(C)N4)c(OC)c2)c1 82
COc1cc(OS(=O)(=O)Cc2ccccc2)ccc1-c1ccc2c(c1COc1cc(F)ccc1C)N(C)C(=O)C(C)(C)N2 100
COc1ccccc1NCc1c(-c2ccc(OS(=O)(=O)CC(C)C)cc2OC)ccc2c1N(C)C(=O)C(C)(C)N2 97

Now for a further molecule.
Sample COc1cc(OS(=O)(=O)Cc2ccccc2Cl)ccc1-c1ccc2c(c1COc1cc(F)ccc1C)N(C)C(=O)C(C)(C)N2 — what was its inhibition at 10 µM? 99

---

# Target: Recombinant human GR (Homo sapiens, UniProt P04150)
# Construct: purchased Invitrogen P2816
# Assay info: GR competitor assay by fluorescence polarization (binding activity to glucocorticoid receptor)
# Condition set: 20 μM test compound solution, 10 μL per well plus 5 μL 4×GS1 and 5 μL 4×GR; 2 to 4 hours at room temperature; ratio of 100% or more is indicated by 100%
Metric: inhibition at 10 µM (%)
# number only, unit % dropped from output

Record excerpt, results attached:
COc1cc(OS(=O)(=O)c2ccc(Cl)cc2)ccc1-c1ccc2c(c1COc1cc(F)ccc1C)N(C)C(=O)C(C)(C)N2 65
COc1cc(OS(=O)(=O)C(F)(F)F)ccc1-c1ccc2c(c1COc1cc(F)ccc1C)N(C)C(=O)C(C)(C)N2 99
COc1cc(OS(=O)(=O)Cc2ccc(C)cc2)ccc1-c1ccc2c(c1COc1cc(F)ccc1C)N(C)C(=O)C(C)(C)N2 91

Now for a further compound.
Sample COc1ccccc1NCc1c(-c2ccc(OS(=O)(=O)C(C)C)cc2OC)ccc2c1N(C)C(=O)C(C)(C)N2 — what was its inhibition at 10 µM? 100
